Test system: SR
testDetails: NCI tumour cell line growth inhibition, 48 h
The source made the active and inactive calls. Cut-off read from the data, not from the text of the source: active = GI50 up to about 1.1 µM and inactive = higher.
Outcome (select one): 1.0 (active), 0.0 (inactive)

Solved entries (count: 3):
molecule="CC(C)(SCc1ccccc1)C(N)C(=O)O (centres undefined)" classification=0.0
molecule=Cc1cnc2c(c1)C(=O)N(c1ccc([N+](=O)[O-])cc1)S2(=O)=O classification=0.0
molecule=C/C(=N\Nc1nc2ccccc2o1)c1ccc2ccccc2n1 classification=1.0

Q: Hello, I am checking results. What call was entered for CSc1nncc(-c2cc3c(c(SC)n2)CCCC3)n1 ?
Result: 0.0

Q: What did this assay record as the result for COc1cc(/C=C2/SC(c3ccccc3)N(c3cc(Cl)ccc3Cl)C2=O)cc(OC)c1OC (centres undefined) ?
Result: 0.0

Q: Tell me the recorded outcome of this test for CCSC12OC3(CCCCCN3C1=O)C1C(=O)N(c3ccccc3)C(=O)C12 (centres undefined) .
Result: 0.0

Q: What outcome does the record of this test show for [N-]=[N+]=NCC1OCC(O)C(OCc2ccccc2)C1OCc1ccccc1 (centres undefined) ?
Result: 0.0

Q: Please indicate how the test categorized COC1=N[C@H](C(C)C)C(OC)=N[C@H]1Cc1ccc(C[C@@H]2N=C(OC)[C@@H](C(C)C)N=C2OC)s1 .
Result: 0.0

Q: Please share the test call associated with COCCOCCOCCC(=O)NC1CC2CCC1(C)C2(C)C (centres undefined) .
Result: 0.0
